Experiment: Pharmacokinetics in mice (IV and PO), plasma LC-MS/MS
Format: in vivo, Male ICR (CD-1) mice
Details: IV (1 mpk)
Where a name gives a salt, the structure may show the parent alone.
measured_attribute: Cl (ml/mL/kg)

1) COc1ccc(C(=O)N(CC(C)(C)CCCCCCCCCCCCCCCCCCCC(=O)NCCCN(CC(=O)O)CC(=O)O)c2cccc(C)n2)c(N2CCC(COc3cc([C@@H](CC(=O)O)C4CC4)ccn3)CC2)c1 [Example 13] | 0.14
2) COc1ccc(C(=O)N(CC(C)(C)CCCCCCCCCCCCCCCCCC(=O)NCCC[N+]23CCN(CC2)CC3)c2cccc(C)n2)c(N2CCC(COc3cc([C@@H](CC(=O)O)C4CC4)ccn3)CC2)c1 [Example 18, TFA salt] | 0.32
3) COc1ccc(C(=O)N(CC(C)(C)CCCCCCCCCCCCCCCCCC(=O)NCCC[N+](C)(CC(=O)NCCN)CC(=O)NCCN)c2cccc(C)n2)c(N2CCC(COc3cc([C@@H](CC(=O)O)C4CC4)ccn3)CC2)c1 [Example 12] | 0.15
4) COc1ccc(C(=O)N(CC(C)(C)CCCCCCCCCCCCCCCCCCCC(=O)NCC[N+](C)(CC(=O)NCCN)CC(=O)NCCN)c2cccc(C)n2)c(N2CCC(COc3cc([C@@H](CC(=O)O)C4CC4)ccn3)CC2)c1 [Example 4] | 0.22
5) COc1ccc(C(=O)N(CC(C)(C)CCCCCCCCCCCCCCCCCCCC(=O)NCCC[N+](C)(CC(=O)[O-])CC(=O)O)c2cccc(C)n2)c(N2CCC(COc3cc([C@@H](CC(=O)O)C4CC4)ccn3)CC2)c1 (some centres unmarked) [Example 14] | 0.20
6) COc1ccc(C(=O)N(CC(C)(C)CCCCCCCCCCCCCCCCCCCCCC[N+]23CCN(CC2)CC3)c2cccc(C)n2)c(N2CCC(COc3cc([C@@H](CC(=O)O)C4CC4)ccn3)CC2)c1 [Example 21] | 0.67
7) COc1ccc(C(=O)N(CC(C)(C)CCCCCCCCCCCCCCCCCC(=O)NCCC[N+]23CC[N+](C)(CC2)CC3)c2cccc(C)n2)c(N2CCC(COc3cc([C@@H](CC(=O)O)C4CC4)ccn3)CC2)c1 [Example 19] | 0.43
8) COc1ccc(C(=O)N(CC(C)(C)CCCCCCCCCCCCCCCCCC(=O)NCC[N+](C)(CCCC(=O)NCCN)CCCC(=O)NCCN)c2cccc(C)n2)c(N2CCC(COc3cc([C@@H](CC(=O)O)C4CC4)ccn3)CC2)c1 [Example 17] | 0.10

###

Assay: Pharmacokinetics in mice (IV and PO), plasma LC-MS/MS
Assay type: in vivo, Male ICR (CD-1) mice
Settings: male, ICR (CD-1), mouse, plasma, 1 mg/kg, IV (1 mpk)
Catalogue of molecules with associated AUC
measured_attribute: AUC (µM·h)

1. COc1ccc(C(=O)N(CC(C)(C)CCCCCCCCCCCCCCCCCCCC(=O)NCC[N+](C)(CC(=O)NCCN)CC(=O)NCCN)c2cccc(C)n2)c(N2CCC(COc3cc([C@@H](CC(=O)O)C4CC4)ccn3)CC2)c1 | 54.1
2. COc1ccc(C(=O)N(CC(C)(C)CCCCCCCCCCCCCCCCCC(=O)NCCC[N+](C)(CC(=O)NCCN)CC(=O)NCCN)c2cccc(C)n2)c(N2CCC(COc3cc([C@@H](CC(=O)O)C4CC4)ccn3)CC2)c1 | 33.9
3. COc1ccc(C(=O)N(CC(C)(C)CCCCCCCCCCCCCCCCCCCC(=O)NCCCN(CC(=O)O)CC(=O)O)c2cccc(C)n2)c(N2CCC(COc3cc([C@@H](CC(=O)O)C4CC4)ccn3)CC2)c1 | 88.9
